Ref: patent US20150086555A1

target: recombinant soluble homotrimeric HA of A/South Carolina/1/18 (H1N1) (Influenza A virus A/South Carolina/1/18 (H1N1)); test: trimeric HA microarray, transfection supernatant set 3; details: remark: other sources report otherwise
measurement_type: Trimeric HA Binding: RLU (RLU)
Answer with a number only, understood to be in RLU.

Consider the worked cases shown below.
INSERT INTO measurements (binder, measurement_type, measurement_units, test_result) VALUES
  ('TCN-504 (3251_K17) (antibody, V domains shown) VH: QVQLQESGPGLVKPSETLSLTCAVSGVSISNIDFYWGWIRQPPGKGLEWIGNIYYTGITFYNPSLSSRVAISIDTSKNQFSLTLTSVTAADTAMYYCARHYGDSEAINDAFDIWGQGTMLTVSS VL: EIVMTQSPATLSVSPGERATLSCRASQSVGNSLAWYQQRPGQAPRLLIYGASTRATGIPPRFSGSGSGTEFTLTISSLQTEDFAVYYCQQYINWRPLSFGGGTKVEIK', 'Trimeric HA Binding: RLU', 'RLU', 27600),
  ('TCN-532 (5262_H18) (antibody, V domains shown) VH: QVQLQESGPGLVKPSETLSLTCTVSGGSVSSETYYWSWIRQPPGKGLEWIGYIYYIGNTDYRPSLKSRVTISLDTSKNQFSLKLSSVTAADTAVYYCARGAYYDSSGYPAFYIWGQGTMVTVSS VL: QSVLTQPPSVSGAPGQRVTISCTGSSSNIGSDYDVHWYKQLPGTAPKLLIFGNSNRPSGVPDRFSGSKSGTSASLAITGLQAEDEADYYCQSYDSSLSGFHVFGSGTKVTVL', 'Trimeric HA Binding: RLU', 'RLU', 311);

Kindly review the next binder as well.
Reported Trimeric HA Binding: RLU for TCN-531 (5091_H13) (antibody, V domains shown) VH: EVQLVESGGDLVQPGRSLKLSCTGSGFTFGDYGVTWVRQAPGKGLEWVGFIRTRPWGGTADTAASVKGRFTISRDDSKSLAYLQMNSLKTEDTAVYYCCRDAPPNVEVASMTNWYFDLWGRGTLVTVSS VL: DIQLTQSPSSLSASVGDRVTITCRASQGILNCLAWYQQKPGKVPNLLMYAASTLQSGVPSRFSGSGFGTDFTLTISSLQPEDVATYYCQTYGGVSTFGGGTKVEIR was 1560
